Data credit: patent US20040176301A1

# study.target: CDK2/Cyclin E complex (UniProt P24941 1-298; P24864 1-410); note: test concentration or dose not given here
# protocol.notes: cell-based or functional assay
measurement.kind: % Inhibition, cyclin E/CDK2 kinase (%)
Kindly answer with a numeric value in %, unit omitted.

Sample H-KRRLIF-NH2 [H-Lys-Arg-Arg-Leu-Ile-Phe-NH2] — what was its % Inhibition, cyclin E/CDK2 kinase? 80
